Property: CAXII % inhibition; scope: individual compounds
Target: CA XII (Homo sapiens, UniProt O43570)
Sequence (O43570 25-354): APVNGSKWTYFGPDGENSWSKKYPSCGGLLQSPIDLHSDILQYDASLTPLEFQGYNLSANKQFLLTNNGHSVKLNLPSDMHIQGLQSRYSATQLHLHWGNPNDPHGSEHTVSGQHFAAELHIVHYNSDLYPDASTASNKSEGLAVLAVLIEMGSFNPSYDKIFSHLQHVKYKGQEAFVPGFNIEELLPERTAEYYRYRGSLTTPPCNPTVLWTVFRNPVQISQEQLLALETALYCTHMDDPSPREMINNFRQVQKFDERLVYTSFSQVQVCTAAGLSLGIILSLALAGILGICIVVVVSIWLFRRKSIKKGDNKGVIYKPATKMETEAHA
Assay: Carbonic anhydrase inhibition assay (p-nitrophenyl acetate hydrolysis, colorimetric, 348 nm)
Conditions: given instead of Ki where inhibition <50%; test compound 10 μL (0.5 mM), b52 says 1.0 mM
Number only, in %; omit the unit.

Study these solved cases before continuing.
>  <Smiles>
COc1cc(C)ccc1C(=O)NNS(=O)(=O)c1ccc(C)cc1

>  <Reported>
42.89

$$$$
>  <Smiles>
COc1cc(C)ccc1C(=O)NNS(=O)(=O)c1ccc([N+](=O)[O-])cc1

>  <Reported>
44.4

$$$$
>  <Smiles>
COc1cccc(CC(=O)NNS(=O)(=O)c2ccc3ccccc3c2)c1

>  <Reported>
48.88

$$$$

Note to self: CAXII % inhibition recorded for COc1cccc(CC(=O)NNS(=O)(=O)c2ccc([N+](=O)[O-])cc2)c1 was 49.25

====

Target: CA XII (Homo sapiens)
Measurement Kind: pKi
Note on pKi: it is the negative log10 of concentration, concentration in mol/L.

>  <Compound>
COc1cc(C)ccc1C(=O)NNS(=O)(=O)c1ccc(Br)cc1 [Compound 20]

>  <pKi>
6.00

$$$$

Note to self: pKi recorded for COc1ccc(S(=O)(=O)NNC(=O)c2ccc(C)cc2O)cc1 [Compound 26] was 6.24

Note to self: pKi recorded for Cc1ccc(C(=O)NNS(=O)(=O)c2ccc(Br)cc2)c(O)c1 [Compound 25] was 6.46

Note to self: pKi recorded for Cc1ccc(CC(=O)NNS(=O)(=O)c2ccc([N+](=O)[O-])cc2)cc1 [Compound 28] was 5.99

Note to self: pKi recorded for Cc1ccc(C(=O)NNS(=O)(=O)c2ccc([N+](=O)[O-])cc2)c(O)c1 [Compound 24] was 6.28

====

Property: Ki; scope: individual compounds
Molecular target: CA II (Homo sapiens, UniProt P00918)
Number only, in µM; omit the unit.

Study these solved cases before continuing.
>  <Compound>
Cc1ccc(CC(=O)NNS(=O)(=O)c2ccc(C)cc2)cc1 [Compound 31]

>  <Assayed Target>
CA II (Homo sapiens, UniProt P00918)

>  <Ki (µM)>
0.67

$$$$
>  <Compound>
Cc1ccc(CC(=O)NNS(=O)(=O)c2ccc(Br)cc2)cc1 [Compound 29]

>  <Assayed Target>
CA II (Homo sapiens, UniProt P00918)

>  <Ki (µM)>
0.73

$$$$
>  <Compound>
COc1cccc(CC(=O)NNS(=O)(=O)c2ccc([N+](=O)[O-])cc2)c1 [Compound 32]

>  <Assayed Target>
CA II (Homo sapiens, UniProt P00918)

>  <Ki (µM)>
0.67

$$$$

Note to self: Ki recorded for COc1ccc(S(=O)(=O)NNC(=O)Cc2cccc(OC)c2)cc1 [Compound 34] was 1.81

Note to self: Ki recorded for COc1ccc(S(=O)(=O)NNC(=O)c2ccc(C)cc2OC)cc1 [Compound 21] was 0.61

Note to self: Ki recorded for COc1cc(C)ccc1C(=O)NNS(=O)(=O)c1ccc(C)cc1 [Compound 22] was 0.68

Note to self: Ki recorded for COc1cccc(CC(=O)NNS(=O)(=O)c2ccc3ccccc3c2)c1 [Compound 36] was 0.92

Note to self: Ki recorded for COc1cc(C)ccc1C(=O)NNS(=O)(=O)c1ccc(Br)cc1 [Compound 20] was 0.66

Note to self: Ki recorded for COc1ccc(S(=O)(=O)NNC(=O)Cc2ccc(C)cc2)cc1 [Compound 30] was 0.74

Note to self: Ki recorded for COc1cc(C)ccc1C(=O)NNS(=O)(=O)c1ccc2ccccc2c1 [Compound 23] was 0.94

====

Measurement Kind: melting point

Study these solved cases before continuing.
>  <Smiles>
COc1ccc(S(=O)(=O)NNC(=O)Cc2cccc(OC)c2)cc1

>  <Reported>
146 to 147 °C

$$$$
>  <Smiles>
COc1cccc(CC(=O)NNS(=O)(=O)c2ccc([N+](=O)[O-])cc2)c1

>  <Reported>
158 to 159 °C

$$$$

Note to self: melting point recorded for COc1cccc(CC(=O)NNS(=O)(=O)c2ccc3ccccc3c2)c1 was 139 to 141 °C

Note to self: melting point recorded for COc1cccc(CC(=O)NNS(=O)(=O)c2ccc(C)cc2)c1 was 143 to 144 °C

Note to self: melting point recorded for COc1ccc(S(=O)(=O)NNC(=O)c2ccc(C)cc2O)cc1 was 168 to 169 °C

Note to self: melting point recorded for COc1ccc(S(=O)(=O)NNC(=O)Cc2ccc(C)cc2)cc1 was 133 to 134 °C

Note to self: melting point recorded for Cc1ccc(S(=O)(=O)NNC(=O)c2ccc(C)cc2O)cc1 was 183 to 185 °C

Note to self: melting point recorded for Cc1ccc(C(=O)NNS(=O)(=O)c2ccc([N+](=O)[O-])cc2)c(O)c1 was 211 to 213 °C

Note to self: melting point recorded for Cc1ccc(CC(=O)NNS(=O)(=O)c2ccc([N+](=O)[O-])cc2)cc1 was 205 to 206 °C

Note to self: melting point recorded for COc1ccc(S(=O)(=O)NNC(=O)c2ccc(C)cc2OC)cc1 was 159 to 162 °C

Note to self: melting point recorded for COc1cccc(CC(=O)NNS(=O)(=O)c2ccc(Br)cc2)c1 was 153 to 154 °C

Note to self: melting point recorded for COc1cc(C)ccc1C(=O)NNS(=O)(=O)c1ccc(Br)cc1 was 168 to 169 °C

Note to self: melting point recorded for COc1cc(C)ccc1C(=O)NNS(=O)(=O)c1ccc2ccccc2c1 was 186 to 187 °C

Note to self: melting point recorded for Cc1ccc(CC(=O)NNS(=O)(=O)c2ccc(C)cc2)cc1 was 143 to 144 °C

Note to self: melting point recorded for Cc1ccc(CC(=O)NNS(=O)(=O)c2ccc(Br)cc2)cc1 was 156 to 157 °C

Note to self: melting point recorded for COc1cc(C)ccc1C(=O)NNS(=O)(=O)c1ccc(C)cc1 was 161 to 163 °C

Note to self: melting point recorded for COc1cc(C)ccc1C(=O)NNS(=O)(=O)c1ccc([N+](=O)[O-])cc1 was 220 to 222 °C
